B1: E3 ubiquitin-protein ligase NEDD4-like, residues 539 to 589; numbered along this chain, Q96PU5 (parent)
chain: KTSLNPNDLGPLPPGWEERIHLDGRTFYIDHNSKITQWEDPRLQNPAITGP

variants of: B1; experiment: abundance fitness (aPCA) (normalised: wild type 0, dead -1); higher = more abundant; growth selection in yeast, the domain comes from the species named; details: Homo sapiens
Quick rule for you: abundance fitness at -0.2 or higher means YES, lower means NO.

| VARIANT_IDENTIFIER | LABEL_VALUE |
| --- | --- |
| I35K | YES |
| R25V | NO |
| E18P | NO |
| K34Q | YES |
| K34Y | NO |

INPUT: Decide: abundance fitness of G15E >= -0.2?
OUTPUT: NO

INPUT: Decide: abundance fitness of I29G >= -0.2?
OUTPUT: NO

INPUT: Decide: abundance fitness of W16Q >= -0.2?
OUTPUT: NO

INPUT: Decide: abundance fitness of L4Q >= -0.2?
OUTPUT: YES

INPUT: Decide: abundance fitness of L4F >= -0.2?
OUTPUT: YES

INPUT: Decide: abundance fitness of P51T >= -0.2?
OUTPUT: YES

INPUT: Decide: abundance fitness of K1S >= -0.2?
OUTPUT: YES

INPUT: Decide: abundance fitness of L9S >= -0.2?
OUTPUT: NO

INPUT: Decide: abundance fitness of L4R >= -0.2?
OUTPUT: NO

INPUT: Decide: abundance fitness of Q37F >= -0.2?
OUTPUT: NO

INPUT: Decide: abundance fitness of W16P >= -0.2?
OUTPUT: NO

INPUT: Decide: abundance fitness of P11M >= -0.2?
OUTPUT: NO

INPUT: Decide: abundance fitness of N45H >= -0.2?
OUTPUT: YES

INPUT: Decide: abundance fitness of E18H >= -0.2?
OUTPUT: NO
